What JAK1 pStat6-Alexa647 Signal/Background was measured for each of the following?
Target: JAK1 (Homo sapiens, UniProt P23458)
Construct: U-937 cells, histiocytic lymphoma cell line; endogenous in cells; host or cells: U-937 (ATCC CRL-1593.2)
Sequence (P23458 whole entry): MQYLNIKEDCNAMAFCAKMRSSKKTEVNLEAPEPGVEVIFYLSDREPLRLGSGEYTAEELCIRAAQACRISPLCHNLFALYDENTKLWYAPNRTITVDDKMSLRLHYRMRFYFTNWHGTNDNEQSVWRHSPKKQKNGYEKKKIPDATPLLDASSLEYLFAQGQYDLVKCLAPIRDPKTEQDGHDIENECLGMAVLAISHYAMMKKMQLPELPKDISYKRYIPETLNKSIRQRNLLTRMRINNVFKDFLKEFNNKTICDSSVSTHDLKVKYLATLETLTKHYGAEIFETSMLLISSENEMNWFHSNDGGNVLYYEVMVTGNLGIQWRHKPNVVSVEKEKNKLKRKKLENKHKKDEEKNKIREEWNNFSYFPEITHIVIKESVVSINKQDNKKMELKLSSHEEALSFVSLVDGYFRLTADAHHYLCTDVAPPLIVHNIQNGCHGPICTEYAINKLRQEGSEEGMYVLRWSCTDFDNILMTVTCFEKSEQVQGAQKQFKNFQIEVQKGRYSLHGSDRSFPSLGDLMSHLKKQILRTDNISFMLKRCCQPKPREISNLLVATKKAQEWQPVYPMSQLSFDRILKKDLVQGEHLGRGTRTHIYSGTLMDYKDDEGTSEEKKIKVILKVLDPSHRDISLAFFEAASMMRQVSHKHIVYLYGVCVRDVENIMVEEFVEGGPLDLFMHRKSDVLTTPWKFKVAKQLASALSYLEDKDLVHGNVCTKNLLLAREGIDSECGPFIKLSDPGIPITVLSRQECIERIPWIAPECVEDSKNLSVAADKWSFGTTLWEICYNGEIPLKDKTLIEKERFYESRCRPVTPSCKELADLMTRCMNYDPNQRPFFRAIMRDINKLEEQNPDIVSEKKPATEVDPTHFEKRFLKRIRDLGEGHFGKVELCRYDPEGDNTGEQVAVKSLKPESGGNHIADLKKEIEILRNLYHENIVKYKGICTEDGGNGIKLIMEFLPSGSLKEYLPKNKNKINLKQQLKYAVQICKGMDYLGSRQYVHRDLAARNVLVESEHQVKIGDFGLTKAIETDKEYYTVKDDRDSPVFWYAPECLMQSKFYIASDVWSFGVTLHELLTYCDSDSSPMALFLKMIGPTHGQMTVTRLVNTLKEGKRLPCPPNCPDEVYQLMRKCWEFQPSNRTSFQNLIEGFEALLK
Assay: JAK phosphorylation/activation by flow cytometry, pSTAT6 staining in IL-4 stimulated U-937 cells; also: test concentration or dose not given here
Type: cell-based
Details: drug 30 min, then IL-4
Answers are plain numbers.

The cases that follow already have their JAK1 pStat6-Alexa647 Signal/Background on record.
O=S(=O)(CCc1ccccc1)Cc1ccc(-c2ccccc2)cc1 [Compound 139]; 6.00
COc1cc2ncnc(Nc3ccc(O)c(Br)c3)c2cc1OC [WHI-P154]; 3.48
c1ccc(CNCCc2ccc(-c3ccccc3)cc2)cc1 [Compound 127]; 4.50

Dear colleague, could you send me JAK1 pStat6-Alexa647 Signal/Background for each of the items below? Thanks.
1. O=C(NCCc1ccc(-c2ccccc2)cc1)c1ccccc1 [Compound 126]
2. [O-][S+](CCc1ccccc1)Cc1ccc(-c2ccccc2)cc1 (stereo not shown) [Compound 137]
3. O=S(=O)(Cc1ccc(-c2ccccc2)cc1)NCc1ccccc1 [Compound 138]
4. O=C(NCc1ccccc1)Oc1ccc(-c2ccccc2)cc1 [Compound 130]

1. 7.38
2. 5.27
3. 6.85
4. 7.60
